These measurements were taken from the supplement of paper PMC7125110.

B1: glmS ribozyme (parent)
chain: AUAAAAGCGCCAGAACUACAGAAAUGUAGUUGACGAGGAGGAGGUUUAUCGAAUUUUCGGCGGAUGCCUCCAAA

# Variants of: B1
# Experimental protocol: KM; higher = weaker cofactor use; RNA array
# Test context: with glucosamine-6-phosphate
Where KM equals or exceeds 1000 µM, the correct label is YES; where it does not, the label is NO.

{"Sequence variant": "G32U U55A", "Label class": "YES"}
{"Sequence variant": "A42U U45A", "Label class": "YES"}
{"Sequence variant": "A14G G32U", "Label class": "YES"}
{"Sequence variant": "A15U U46A", "Label class": "YES"}
{"Sequence variant": "A12G C58A", "Label class": "YES"}
{"Sequence variant": "C16A G41A", "Label class": "NO"}
{"Sequence variant": "A15C U31A", "Label class": "YES"}
{"Sequence variant": "A52U C70U", "Label class": "YES"}
{"Sequence variant": "U54C G66A", "Label class": "YES"}
{"Sequence variant": "G32A U49G", "Label class": "NO"}
{"Sequence variant": "C58A U65C", "Label class": "YES"}
{"Sequence variant": "C11U C58A", "Label class": "NO"}
{"Sequence variant": "A6G U47G", "Label class": "YES"}
{"Sequence variant": "G13C A15G", "Label class": "YES"}
{"Sequence variant": "C16U C67A", "Label class": "NO"}
{"Sequence variant": "A6C U47C", "Label class": "NO"}
{"Sequence variant": "U31A A42U", "Label class": "YES"}
{"Sequence variant": "A52G G66U", "Label class": "YES"}
{"Sequence variant": "A39C A48U", "Label class": "YES"}
{"Sequence variant": "G13U U47G", "Label class": "YES"}
{"Sequence variant": "A48U G66A", "Label class": "YES"}
{"Sequence variant": "A12U C67U", "Label class": "YES"}
{"Sequence variant": "A53C C68U", "Label class": "NO"}
{"Sequence variant": "A39G G41U", "Label class": "YES"}
{"Sequence variant": "A48U C71A", "Label class": "YES"}
{"Sequence variant": "A14G G40A G41U G66A", "Label class": "YES"}
{"Sequence variant": "U46C A53G", "Label class": "YES"}
